Molecular target: Hs_FPR2 (Homo sapiens)
Construct: expressed in transfected cells
Sequence (P25090 1-351): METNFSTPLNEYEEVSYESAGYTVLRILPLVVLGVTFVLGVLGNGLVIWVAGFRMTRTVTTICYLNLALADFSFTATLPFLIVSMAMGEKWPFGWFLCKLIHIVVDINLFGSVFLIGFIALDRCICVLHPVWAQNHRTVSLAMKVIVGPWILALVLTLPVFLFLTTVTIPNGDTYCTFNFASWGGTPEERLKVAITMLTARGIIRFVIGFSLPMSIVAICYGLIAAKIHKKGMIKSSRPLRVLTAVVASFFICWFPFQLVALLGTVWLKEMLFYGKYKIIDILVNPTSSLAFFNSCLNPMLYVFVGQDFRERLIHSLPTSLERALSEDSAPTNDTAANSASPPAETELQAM
Assay: BRET receptor-RLuc8 interaction with Arrestin 3-YFP
Assay type: cell-based
Where a SMILES comes first, the peptide text is derived from it. The star is where a group is joined. Palmitoyl = CCCCCCCCCCCCCCCC(=O)*; For = O=C*
Emax overview
Field: numeric (%). Do not append units.

CCCCCCCCCCCCCCCC(=O)N[C@@H](CCCCN)C(=O)N[C@H](C(=O)N[C@@H](Cc1c[nH]cn1)C(=O)N[C@@H](CCCCN)C(=O)N[C@@H](CCCCN)C(=O)NCC(=O)N[C@@H](CCSC)C(=O)N[C@H](C(=O)N[C@@H](CCCCN)C(=O)N[C@@H](CO)C(=O)O)[C@@H](C)CC)[C@@H](C)CC [F2Pal10] (Palmitoyl-KIHKKGMIKS-OH)	25.5
COc1cc(F)c([C@@H]2CNC(=O)[C@H]2NC(=O)Nc2ccccc2)c(F)c1	85.1

CSCC[C@H](NC=O)C(=O)N[C@@H](CC(C)C)C(=O)N[C@@H](Cc1ccccc1)C(=O)N[C@@H](CCCCN)C(=O)O [fMLFK, fMet-Leu-Phe-Lys] (For-MLFK-OH) tested on Hs_FPR2 (Homo sapiens) gave Emax: 92.7

* * *

Target: Mm_Fpr1 (Mus musculus, UniProt P33766)
Construct: expressed in transfected cells
Sequence (P33766 1-364): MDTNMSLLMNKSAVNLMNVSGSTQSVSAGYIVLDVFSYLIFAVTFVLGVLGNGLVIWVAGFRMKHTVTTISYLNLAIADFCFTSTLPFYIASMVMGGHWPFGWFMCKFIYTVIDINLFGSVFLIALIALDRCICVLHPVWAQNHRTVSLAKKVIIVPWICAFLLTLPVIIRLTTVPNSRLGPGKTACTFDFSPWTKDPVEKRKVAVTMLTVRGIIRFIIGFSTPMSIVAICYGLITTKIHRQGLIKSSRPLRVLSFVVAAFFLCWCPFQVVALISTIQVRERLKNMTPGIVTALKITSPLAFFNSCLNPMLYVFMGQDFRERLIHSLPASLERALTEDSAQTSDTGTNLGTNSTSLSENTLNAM
Assay: Internalization of FLAG-tagged receptors by flow cytometry
Format: cell-based
Where a SMILES comes first, the peptide text is derived from it. The star is where a group is joined. For = O=C*
Emax overview

CSCC[C@H](NC(=O)[C@H](Cc1ccc(O)cc1)NC(=O)[C@H](CCCCN)NC(=O)[C@@H](N)Cc1c[nH]c2ccccc12)C(=O)N[C@H](C(=O)N[C@H](CCSC)C(N)=O)C(C)C	108%
CSCC[C@H](NC=O)C(=O)N[C@@H](CC(C)C)C(=O)N[C@@H](Cc1ccccc1)C(=O)O	92.5%
CC[C@H](C)[C@H](NC(=O)[C@H](CC(C)C)NC(=O)[C@H](CCCCN)NC(=O)[C@H](CCSC)NC(=O)[C@H](CC(C)C)NC(=O)[C@@H]1CCCN1C(=O)[C@H](CC(N)=O)NC(=O)[C@@H](NC(=O)[C@H](CCCCN)NC(=O)[C@H](CCCNC(=N)N)NC(=O)[C@H](CCSC)NC(=O)[C@@H]1CCCN1C(=O)[C@@H](NC(=O)[C@H](CCSC)NC=O)[C@@H](C)O)[C@@H](C)CC)C(=O)N[C@@H](CC(N)=O)C(=O)O [MCT-2, Formyl-MTPMRKINPLMKLIN] (For-MTPMRKINPLMKLIN-OH)	7.39%

Lab note: next compound to report on.
Lab note: measured Emax of CSCC[C@H](NC=O)C(=O)N[C@@H](CC(C)C)C(=O)N[C@@H](Cc1ccccc1)C(=O)N[C@@H](CCCCN)C(=O)O [fMLFK, fMet-Leu-Phe-Lys] (For-MLFK-OH) was 179%

* * *

Target: Mm_Fpr2 (Mus musculus)
Construct: expressed in transfected cells
Sequence (O88536 whole entry): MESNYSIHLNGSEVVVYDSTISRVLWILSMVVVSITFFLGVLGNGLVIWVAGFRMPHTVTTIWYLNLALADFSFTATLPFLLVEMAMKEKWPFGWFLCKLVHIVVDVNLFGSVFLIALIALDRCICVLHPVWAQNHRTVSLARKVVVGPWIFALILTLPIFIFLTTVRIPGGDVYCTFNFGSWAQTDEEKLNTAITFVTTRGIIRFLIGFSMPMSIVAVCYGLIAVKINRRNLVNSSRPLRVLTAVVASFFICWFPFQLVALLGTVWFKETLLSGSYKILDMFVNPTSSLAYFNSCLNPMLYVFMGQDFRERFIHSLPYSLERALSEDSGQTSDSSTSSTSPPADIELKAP
Assay: Internalization of FLAG-tagged receptors by flow cytometry
Type: cell-based
Where a SMILES comes first, the peptide text is derived from it. The star is where a group is joined. For = O=C*
Measured Metric: EC50 (µM)
Field: numeric (µM). Do not append units.

CSCC[C@H](NC=O)C(=O)N[C@@H](CC(C)C)C(=O)N[C@@H](Cc1ccccc1)C(=O)N[C@@H](CCCCN)C(=O)O [fMLFK, fMet-Leu-Phe-Lys] (For-MLFK-OH) tested on Mm_Fpr2 (Mus musculus) gave EC50: 11.6
